From: patent US20170096493A1

The following binders are listed with their measured kon values.
study.system: T1, Human Notch4-NRR domain Fc fusion protein (human, UniProt Q99466 1046-1445, limits assumed)
T1 construct: Expressed in a CHO cell line, used from culture supernatant; 1 is named; also called Human Notch4-NRR Fusion Protein; not shown: Fc
T1 sequence: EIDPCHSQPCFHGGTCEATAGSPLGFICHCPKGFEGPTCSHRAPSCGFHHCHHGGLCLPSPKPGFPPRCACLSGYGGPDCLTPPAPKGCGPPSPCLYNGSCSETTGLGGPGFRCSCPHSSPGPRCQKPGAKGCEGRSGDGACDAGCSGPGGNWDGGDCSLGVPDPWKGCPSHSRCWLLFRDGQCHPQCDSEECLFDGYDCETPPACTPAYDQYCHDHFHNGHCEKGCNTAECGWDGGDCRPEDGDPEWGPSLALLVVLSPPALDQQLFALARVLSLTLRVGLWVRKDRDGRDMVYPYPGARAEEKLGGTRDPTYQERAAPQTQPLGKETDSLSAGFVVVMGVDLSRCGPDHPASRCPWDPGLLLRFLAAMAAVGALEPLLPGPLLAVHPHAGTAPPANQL
assay.text: SPR (Biacore) as for Table 30; Notch4-NRR-Fc captured, antibody injected; averaged, N=3
The answer is to be given in M⁻¹ s⁻¹; state only the numeric part.

binder | reported.result
Antibody E (antibody, human IgG2, kappa, V domains shown, Humanized IgG2 (V234A, G237A)/κ; also called HK2L6 (Lys-); HK2L6(Lys-)) VH: EVQLVESGGGLVQPGGSLRLSCAASGFTFSSYGMSWVRQAPGKGLELVSTINSNGGRTYYPDSVKGRFTISRDNSKNTLYLQMGSLRAEDMAVYYCARDQGFAYWGQGTLVTVSS VL: EIVMTQSPATLSVSPGERATLSCKASQDVGTAVAWYQQKPGQSPRLLIYWASTRHTGIPARFSGSGSGTEFTLTISSLQSEDFAVYFCQQYSSYPWTFGQGTKVEIKR | 1.87e+06

Param item = HK1L5 (antibody, human IgG2, kappa, V domains shown, Humanized IgG2 (V234A, G237A)/κ; also called No. 10) VH: EVQLVESGGGLVQPGGSLRLSCAASGFTFSSYGMSWVRQAPGKGLEYVSTINSNGGRTYYPDSVKGRFTISRDNSKNTLYLQMGSLRAEDMAVYYCARDQGFAYWGQGTLVTVSS VL: DIQMTQSPSSLSASVGDRVTITCKASQDVGTAVAWYQQKPGKSPKLLIYWASTRHTGVPSRFSGSGSGTDFTLTISSLQPEDVATYFCQQYSSYPWTFGQGTKVEIKR ; retrieve measured kon.
2.72e+06

What do you get for HA2L6(Lys-) (antibody, human IgG2, kappa, V domains shown, Humanized IgG2 (V234A, G237A)/κ; also called No. 40) VH: EVQLVESGGGLVQPGGSLRLSCAASGFTFSSYGMSWVRQAPGKGLELVSTINSNGGRTYYANSVKGRFTISRDNSKNTLYLQMGSLRAEDMAVYYCARDQGFAYWGQGTLVTVSS VL: EIVMTQSPATLSVSPGERATLSCKASQDVGTAVAWYQQKPGQSPRLLIYWASTRHTGIPARFSGSGSGTEFTLTISSLQSEDFAVYFCQQYSSYPWTFGQGTKVEIKR ?
1.83e+06

What do you get for HK3L6(Lys-) (antibody, human IgG2, kappa, V domains shown, Humanized IgG2 (V234A, G237A)/κ; also called No. 42) VH: EVQLVESGGGLVQPGGSLRLSCAASGFTFSSYGMSWVRQAPGKGLELVATINSNGGRTYYPDSVKGRFTISRDNSKNTLYLQMGSLKAEDMAVYYCARDQGFAYWGQGTLVTVSS VL: EIVMTQSPATLSVSPGERATLSCKASQDVGTAVAWYQQKPGQSPRLLIYWASTRHTGIPARFSGSGSGTEFTLTISSLQSEDFAVYFCQQYSSYPWTFGQGTKVEIKR ?
1.51e+06
